Biological target: T1, human DLL4 extracellular domain (human, UniProt Q9NR61 27-529)
T1 construct: purified recombinant ECD; biotin-labelled or 6xHis-tagged depending on the assay; also called huDLL4 ECD; hu DLL4 ECD
T1 sequence (Q9NR61 27-529 limits assumed): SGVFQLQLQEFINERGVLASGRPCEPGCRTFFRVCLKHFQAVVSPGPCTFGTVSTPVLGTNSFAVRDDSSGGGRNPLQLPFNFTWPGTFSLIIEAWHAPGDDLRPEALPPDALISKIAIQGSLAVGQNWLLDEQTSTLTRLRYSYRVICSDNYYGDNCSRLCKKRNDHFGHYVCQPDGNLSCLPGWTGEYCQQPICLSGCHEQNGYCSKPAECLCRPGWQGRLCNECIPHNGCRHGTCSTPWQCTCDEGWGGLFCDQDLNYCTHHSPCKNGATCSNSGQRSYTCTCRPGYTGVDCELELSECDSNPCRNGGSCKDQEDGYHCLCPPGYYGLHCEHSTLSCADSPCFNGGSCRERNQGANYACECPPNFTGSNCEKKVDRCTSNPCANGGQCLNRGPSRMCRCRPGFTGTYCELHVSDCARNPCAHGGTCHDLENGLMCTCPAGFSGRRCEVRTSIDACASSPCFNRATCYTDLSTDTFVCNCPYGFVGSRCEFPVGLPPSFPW
Test: SPR (Biacore)
Experimental: The BIACORE® surface plasmon resonance assay (Biacore, Inc., Piscataway, N.J., US) determines the affinity of antibodies with kinetic measurements of on-rate and off-rate constants. […] The equilibrium dissociation constant KD (M) of the reaction between antibodies and the target antigen was then calculated from the kinetic rate constants by the following formula: KD=Koff/Kₒₙ. Binding was recorded as a function of time and kinetic rate constants were calculated.
Labelling field: enter T if recorded Kd is less than 0.06 nM. Enter F if it equals or exceeds that cut-off.

- Binder: "h1A11.A8 (antibody, V domains shown, also called h1A11.A8 VH / h1A11VL.1) VH: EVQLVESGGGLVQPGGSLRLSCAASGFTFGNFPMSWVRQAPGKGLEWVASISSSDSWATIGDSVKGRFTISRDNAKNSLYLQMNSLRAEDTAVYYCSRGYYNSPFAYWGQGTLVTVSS VL: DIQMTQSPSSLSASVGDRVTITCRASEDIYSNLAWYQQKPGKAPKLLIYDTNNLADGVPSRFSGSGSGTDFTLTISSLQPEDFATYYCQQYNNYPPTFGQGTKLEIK"
  Cat: "F"
- Binder: "h1A11.E12 (antibody, V domains shown, also called h1A11.E12 VH / h1A11.E12 VL) VH: EVQLVESGGGLVQPGGSLRLSCAASGFTFRYFPMAWVRQAPGKGLEWVATISGSDEWPNYRDSVKGRFTISRDNAKNSLYLQMNSLRAEDTAVYYCARGYYNSPFAFWGQGTLVTVSS VL: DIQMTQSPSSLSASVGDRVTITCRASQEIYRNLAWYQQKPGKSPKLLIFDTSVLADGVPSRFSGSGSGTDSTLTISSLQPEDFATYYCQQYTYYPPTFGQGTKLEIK"
  Cat: "F"
- Binder: "h1A11.A7 (antibody, V domains shown, also called h1A11VH.1 / h1A11.A7 VL) VH: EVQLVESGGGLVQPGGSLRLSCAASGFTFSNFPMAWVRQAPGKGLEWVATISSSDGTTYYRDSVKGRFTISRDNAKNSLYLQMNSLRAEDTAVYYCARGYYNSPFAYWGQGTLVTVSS VL: DIQMTQSPSSLSASVGDRVTITCRASQDIYINLAWYQQKPGKAPKLLIFDTSDLADGVPSRFSGSGSGTDFTLTISSLQPEDFATYYCQQYDYYPPTFGQGTKLEIK"
  Cat: "F"
- Binder: "h1A11.A12 (antibody, V domains shown, also called h1A11VH.1 / h1A11.A12 VL) VH: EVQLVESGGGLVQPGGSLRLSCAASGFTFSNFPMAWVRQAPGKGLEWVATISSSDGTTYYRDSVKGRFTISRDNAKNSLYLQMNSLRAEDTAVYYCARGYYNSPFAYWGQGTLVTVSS VL: DIQMTQSPSSLSASVGDRVTITCRASQDIYYNLAWYQQKPGKSPKLLIFDTSSLADGVPSRFSGSGSGTDFTLTISSLQPEDFATYFCQQYDWYPPTFGQGTKLEIK"
  Cat: "F"
- Binder: "h1A11.A6 (antibody, V domains shown, also called h1A11.A6 VH / h1A11VL.1) VH: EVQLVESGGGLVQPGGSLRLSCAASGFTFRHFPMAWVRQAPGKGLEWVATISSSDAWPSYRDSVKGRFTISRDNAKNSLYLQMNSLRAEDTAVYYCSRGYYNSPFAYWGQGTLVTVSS VL: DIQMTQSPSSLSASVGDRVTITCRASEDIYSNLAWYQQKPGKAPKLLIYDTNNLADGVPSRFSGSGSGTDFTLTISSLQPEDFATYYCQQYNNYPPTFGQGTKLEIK"
  Cat: "T"
